Value source: a melting point compilation (Tetko et al.)

Endpoint: melting point

Molecule	Endpoint	Experimental result
COc1cc(OC)c(/C=C/C(c2ccc(OC)c(NC(=O)C(C)OC(C)=O)c2)S(=O)(=O)C(/C=C/c2c(OC)cc(OC)cc2OC)c2ccc(OC)c(NC(=O)C(C)OC(C)=O)c2)c(OC)c1 (centres undefined)	melting point	179 to 180 °C
CCOC(=O)c1cnc2c(c(C)nn2C)c1NCS(=O)(=O)c1ccc(Oc2ccc(Cl)cc2)cc1	melting point	52 to 55 °C
CC(C)[Si](OC(=O)Cc1cc(I)c(Oc2cc(I)c(OCC3CO3)c(I)c2)c(I)c1)(C(C)C)C(C)C (centres undefined)	melting point	120 °C
CC(C)CCCOC(=O)NCCc1nc(-c2ccc(-c3ccccc3)cc2)c[nH]1	melting point	128 °C
CCc1nc(OC)c(NC(=O)N2CCN(c3cc(OC)cc(OC)c3)CC2)cc1C(=O)NC(C)C(=O)Nc1cc(CO)cc(Nc2c3ccccc3nc3ccccc23)c1 (centres undefined)	melting point	231 to 233 °C
CSc1ccc2c3c(cccc13)C(=O)N(O)C2=O	melting point	301 to 306 °C
CC(=O)N(CC(CO)(CO)CN(Oc1c(I)c(C(=O)N(CCO)CCO)c(I)c(C(=O)N(CCO)CCO)c1I)C(C)=O)Oc1c(I)c(C(=O)N(CCO)CCO)c(I)c(C(=O)N(CCO)CCO)c1I	melting point	198 °C
O=P(O)(C(F)(F)C(F)(F)C(F)(F)C(F)(F)C(F)(C(F)(F)F)C(F)(F)F)C(F)(F)C(F)(F)C(F)(F)C(F)(F)C(F)(C(F)(F)F)C(F)(F)F	melting point	91 to 94 °C
CCCCCCOCC1CN(c2cc3c(cc2F)c(=O)c(C(=O)O)cn3CC)CCN1 (centres undefined)	melting point	121 to 124 °C
